Where do these numbers come from? They come from ChEMBL document CHEMBL1201862.

System: NCI-H23
Assay: NCI tumour cell line growth inhibition, 48 h
The source made the active and inactive calls. Cut-off read from the data, not from the text of the source: active = GI50 up to about 1.1 µM and inactive = higher. Square brackets hold non-standard residues; d marks the D form. Peptide text beside a SMILES is read from it. * marks the point of attachment. X26 = COC1=CC(=O)N(C(=O)[C@@H](O*)C(C)C)[C@H]1Cc1ccccc1; NMeL = CN[C@@H](CC(C)C)C(=O)O; Hexanoyl = CCCCCC(=O)*
Mark one answer only. Choices: active, inactive

Illustrative cases are given below, each with its answer.
COc1ccc(-c2c(C3=NCCCN3)nnn2-c2ccc([N+](=O)[O-])cc2)cc1: inactive
Oc1ccc(-c2nc3ccccc3s2)cc1: inactive

QUERY: What did the test return for N=C(N)SCc1cc(Cl)cc(Cl)c1O ?
RESULT: inactive

QUERY: How about Cc1ccc(N2C(=O)/C(=C/c3ccc(N(CCC#N)CCC#N)cc3)N=C2COc2ccc(Cl)cc2Cl)cc1 ?
RESULT: inactive

QUERY: How about Cc1cc(C)n(CN(Cn2nc(C)cc2C)c2ccc(N(Cn3nc(C)cc3C)Cn3nc(C)cc3C)cc2)n1 ?
RESULT: inactive

QUERY: How about C/C(=N/NC(=S)N1CCCCCC1)c1cccc(/C(C)=N\NC(=S)N2CCCCCC2)n1 ?
RESULT: inactive

QUERY: How about Cc1ccc(OC(=O)N2C/C(=C\c3ccccc3)C(=O)/C(=C/c3ccccc3)C2)cc1 ?
RESULT: inactive

QUERY: How about CCCCCC(=O)N[C@H](C(=O)N[C@H](C(=O)N(C)[C@@H](CC(C)C)C(=O)N1CCC[C@H]1C(=O)N1CCC[C@H]1C(=O)O[C@H](C(=O)N1C(=O)C=C(OC)[C@@H]1Cc1ccccc1)C(C)C)C(C)C)C(C)C (Hexanoyl-VV[NMeL]PP-X26) ?
RESULT: inactive

QUERY: How about O=C(c1ccccc1)c1nnn(Cc2ccccc2Cn2nnc(C(=O)c3ccccc3)c2C(=O)c2ccccc2)c1C(=O)c1ccccc1 ?
RESULT: inactive
